src = PubChem BioAssay

- Tested on: Neuregulin-1 EGF-like domain
- TEST: binders of neuregulin-1 EGF-like domain, primary screen, biochemical, small-molecule microarray, 635 nm fluorescence (AID 1081);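 further: binding of the protein to compounds printed on small-molecule microarray slides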
- MEASUREMENT PARAMETERS: small-molecule microarray binding, higher = more signal
Give measured composite z-score for each item. Keep answers brief.
One number for each entry.

Example entries begin here.
{"COMPOUND SMILES": "C=CC[C@@H]1C=C[C@H](ON=C(C)CCN2CCc3nc(CC)c(CC)cc3C2)[C@@H](CO)O1", "composite z-score": 0.987}
{"COMPOUND SMILES": "COC(=O)C1=C(C)N(Cc2ccccc2)[C@]23O[C@](C(=O)OC)(C(=O)N2[C@@H]1c1ccccc1)[C@H]1CCOC(=O)[C@H]13", "composite z-score": 0.815}

Provide the reported composite z-score of each entry below, same order.
1. CC(CCN1CCc2nc(-c3ccccc3)c(-c3ccccc3)cc2C1)=NO[C@H](C)c1cn([C@@H]2COC[C@H]2O)nn1
2. CN(C)C(=O)[C@@]1(Cc2ccccc2)N=C(c2ccc(OCCCO)cc2)O[C@H]1c1ccccc1CN=[N+]=[N-]
3. CCOC(=O)NN=C1C[C@@H](O)[C@@H](O)[C@@H]2[C@@H]3C(=O)N(C4CCCCC4)C(=O)[C@@H]3CC[C@H]12
4. COCCOC(=O)N1C(=O)[C@@]2(c3cc(C#CC4(O)CCCCCC4)ccc31)[C@H](c1ccc(OCCO)cc1)N1[C@H](c3ccccc3)[C@H](c3ccccc3)OC(=O)[C@H]1[C@@H]2C(=O)NC[C@H](O)c1ccccc1
5. COCCCNC(=O)[C@]1(Cc2ccccc2)N=C(c2ccc(OCCCO)cc2)O[C@@H]1c1ccccc1

1. 1.03
2. 1.2
3. 0.444
4. 1.13
5. 1.04
